System: SK-OV-3 ovarian
protocol-summary: NCI-60 one-dose screen, 48 h (100 = growth as untreated, 0 = no growth, -100 = all killed)
condition: 10 µM unless noted
About 83,000 compounds went through this panel and 20% of them were active in at least one assay; those are over-represented in the sample as a whole.
readout-type: growth (%)
# output: bare number, implied unit %

// returns reported growth for input "CCCCOc1nc2ccc(OC)cc2cc1-c1cc(-c2ccc(Cl)cc2)nc(-c2ccc(Cl)cc2)c1"
108

# query: growth of entry "Cc1ccc(C(=O)NCCNc2nccc(-c3c(-c4cccc(F)c4)nc4sccn34)n2)cc1"
64.3

So what's the measured growth for this one? "Clc1ccc(C(/C=C/c2sc(Cl)nc2Cl)=N/Nc2cc(Cl)cc(Cl)c2)cc1"
98.9

Requested read-out: growth. Entry: "O=c1cc(SCc2ccccc2)nc[nH]1"
114

Suppose we examine the compound COc1ccc(C2CC(c3ccc(Nc4ccnc5cc(Cl)ccc45)cc3)=NN2C=O)cc1 (stereo unspecified) ; what growth value has been reported?
96.9

Looking for the measured growth of N#CC1=C(N)Oc2c(sc3c(Br)cccc23)C1c1ccc(Br)cc1 (stereo unspecified) , can you help?
36

# growth lookup, item "Oc1ccc(CCl)c2cccnc12"
87.9

Given the compound "COc1ccc(OC)c(/C=C2\Oc3cc(OCCN4CCC(Cc5ccccc5)CC4)ccc3C2=O)c1" , what is its reported growth?
93.3

Report growth for "COc1ccn2c(C(C)=O)cc(C(=O)c3ccc4c(c3)Sc3ccccc3N4)c2c1" please.
18.8

Dear colleague, I am looking for the recorded growth of the following compound: "Brc1c[n+](Cc2ccc3ccccc3c2)cn1Cc1ccc2ccccc2c1"
34.9

I have this compound here, "O=c1ccc(N=Nc2ccccc2)ccc1Cl" , and I need its recorded growth.
93.8

* * *

Test system: ACHN renal
protocol-summary: NCI-60 one-dose screen, 48 h (100 = growth as untreated, 0 = no growth, -100 = all killed)
condition: 10 µM unless noted
The panel holds about 83,000 compounds, 20% with a hit somewhere; the sample as a whole holds those more often. Calls of active or inactive are those of the source. How the source made its calls: active means growth percent below 10; inactive means the rest.
readout-type: growth

Requested read-out growth, target or system ACHN renal, entry CCCCCCCCCCCCCCCCCC1OCC(COC(=O)O[C@]2(CC)C(=O)OCc3c2cc2n(c3=O)Cc3cc4ccccc4nc3-2)O1 (stereo not given in full)
62.9% (inactive)

GET /values?readout=growth&system=ACHN renal&item= "COc1cc(C(=O)c2cnc(-c3cccc4[nH]ccc34)[nH]2)cc(OC)c1OC"
30.2% (inactive)

State its growth on ACHN renal: "CCOC(=O)c1nc(Nc2ccc(C(C)=O)cc2)sc1C"
101% (inactive)

Fill in the recorded growth for this compound, with ACHN renal as test system: "CCOC(=O)NCCc1ccccc1"
110% (inactive)

Find the measured growth: item "C=C1CC[C@H](C(C)C)[C@@H]2[C@H]1[C@H]1CC(=C)[C@@H](O)CC[C@@](C)(O)[C@@H]2O1" , target or system ACHN renal.
95.8% (inactive)

Lab request: please report growth under test system ACHN renal for O=CN1N=C(c2ccc(Nc3ccnc4cc(Cl)ccc34)cc2)CC1c1ccccc1 (stereo not given)
33.4% (inactive)

Item: "COc1cc(/C=N/NC(=O)c2ccc(C)nc2)cc(OC)c1OC" Test system: ACHN renal Read-out: growth Value: ?
91.2% (inactive)

# returns recorded growth (system: ACHN renal) for "CSc1nc2ccc(C)cc2cc1/C=N/O"
82.8% (inactive)

# value lookup — system ACHN renal, readout growth, item "C/C(=N/NC(N)=S)c1sc(Nc2cccc(Cl)c2)nc1C"
80.5% (inactive)

Test system ACHN renal; read-out growth; what value for "C/C(=C\C(=O)c1ccc(Cl)cc1)c1ccc(Cl)cc1" ?
98.3% (inactive)
